Molecular target: 5HT2B receptors (Homo sapiens, UniProt P41595)
Construct: expressed in transfected cells; host or cells: CHO-K1 cells
Sequence (P41595 whole entry): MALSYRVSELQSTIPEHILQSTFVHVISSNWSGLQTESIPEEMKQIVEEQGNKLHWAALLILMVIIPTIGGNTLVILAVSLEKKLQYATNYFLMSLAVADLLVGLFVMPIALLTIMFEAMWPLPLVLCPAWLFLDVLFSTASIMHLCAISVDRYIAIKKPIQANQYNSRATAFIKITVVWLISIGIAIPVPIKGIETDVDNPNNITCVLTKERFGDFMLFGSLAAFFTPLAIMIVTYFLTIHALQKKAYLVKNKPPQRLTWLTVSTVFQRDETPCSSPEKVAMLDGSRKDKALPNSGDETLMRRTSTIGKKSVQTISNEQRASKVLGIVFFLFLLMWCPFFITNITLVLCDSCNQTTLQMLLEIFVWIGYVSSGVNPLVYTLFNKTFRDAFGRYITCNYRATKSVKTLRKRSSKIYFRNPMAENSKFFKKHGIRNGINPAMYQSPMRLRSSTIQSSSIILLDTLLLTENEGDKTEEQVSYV
Test: Human 5-HT2B functional high throughput screening assay in CHO-K1 cells (calcium flux)
Type: cell-based
Details: 5-HT2B agonist activity; CHO-K1 cells; calcium flux; read-out: EC50
Endpoint name: EC50

Please indicate recorded EC50 of CN1C[C@H]2CNC(=O)c3cc(C4=CCOCC4)ccc3[C@@H]2C1 (relative stereo) measured with 5HT2B receptors (Homo sapiens, UniProt P41595). > 10 µM

Please report the measured EC50 for COC(=O)c1ccc2c(c1)C(=O)NC[C@@H]1CN(Cc3ccccc3)C[C@@H]21 (relative stereo) tested on 5HT2B receptors (Homo sapiens, UniProt P41595). > 10 µM

Output reported EC50 of the compound `O=C1NC[C@H]2CNC[C@@H]2c2ccc(-c3ccc(F)cc3)cc21` on 5HT2B receptors (Homo sapiens, UniProt P41595). > 10 µM

---

Molecular target: 5HT2C receptors (Homo sapiens, UniProt P28335)
Sequence (P28335 33-458): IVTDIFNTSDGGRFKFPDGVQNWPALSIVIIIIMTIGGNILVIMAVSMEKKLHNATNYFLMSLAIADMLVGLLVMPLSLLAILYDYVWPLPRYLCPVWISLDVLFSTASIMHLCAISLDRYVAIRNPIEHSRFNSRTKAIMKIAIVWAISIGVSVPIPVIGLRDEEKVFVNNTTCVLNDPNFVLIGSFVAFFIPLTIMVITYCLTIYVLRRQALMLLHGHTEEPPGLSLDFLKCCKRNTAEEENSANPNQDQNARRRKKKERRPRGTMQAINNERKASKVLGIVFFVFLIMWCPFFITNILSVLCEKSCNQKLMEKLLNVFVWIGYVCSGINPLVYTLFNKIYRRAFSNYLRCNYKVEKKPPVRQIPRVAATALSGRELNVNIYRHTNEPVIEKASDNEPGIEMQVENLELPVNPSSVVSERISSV
Assay: Human 5-HT2C functional high throughput screening assay in CHO-K1 cells (calcium flux)
Format: cell-based
Design: expressed in transfected cells; host or cells: CHO-K1 cells
Details: 5-HT2C agonist activity; CHO-K1 cells; calcium flux; read-out: EC50
Endpoint name: EC50 (nM)

Completed entries (count: 3):
INSERT INTO results (molecule, measurement_units, measured_result) VALUES
  ('CN1C[C@H]2CNC(=O)c3cc(C=Cc4ccccc4)ccc3[C@@H]2C1 (relative stereo)', 'nM', 121),
  ('O=S(=O)(c1ccc(OC(F)F)cc1)N1Cc2cccnc2[C@@H]2CNC[C@H]2C1 (relative stereo)', 'nM', 20),
  ('COc1cccc2c1OCC[C@H]1CNC[C@H]21 (relative stereo)', 'nM', 1000);

I = CCc1ccc(-c2ccc3c(c2)C(=O)NC[C@@H]2CN(C)C[C@@H]32)cc1 (relative stereo)
II = CN1C[C@H]2CNC(=O)c3cc(-c4ccc5c(c4)C(=O)CC5)ccc3[C@@H]2C1 (relative stereo)
III = O=C1NC[C@@H]2CN(Cc3ccccc3)C[C@@H]2c2cccc(F)c21 (relative stereo)
IV = CN1C[C@H]2CNC(=O)c3cc(C(=O)N4CCCCC4)ccc3[C@@H]2C1 (relative stereo)
// ascending sort on recorded EC50 Return the labels ranked in the requested order, please. I, III, II, IV
(I: 30 nM, III: 100 nM, II: 400 nM, IV: 6000 nM)

---

Molecular target: human serotonin 5-HT2c receptor (Homo sapiens, UniProt P28335)
Test: Human 5-HT2C receptor radioligand binding assay (agonist site, [125I]DOI)
Conditions: 5-HT2c agonist site; transfected CHO cell membranes; 0.2 nM [125I](±)DOI
Endpoint name: Ki (nM)

INSERT INTO assay_data (compound, system_name, measurement_units, measured_result) VALUES
  ('O=C1NC[C@@H]2CN(Cc3ccccc3)C[C@H]2c2ccc(Cl)cc21 (relative stereo) [Example 45]', 'human serotonin 5-HT2c receptor (Homo sapiens, UniProt P28335)', 'nM', 6.9);

a = COC(=O)c1cccc(CN2C[C@H]3CNC(=O)c4ccccc4[C@@H]3C2)c1 (relative stereo) [Example 68]
b = O=C1NC[C@@H]2CN(Cc3ccccc3)C[C@@H]2c2cccc(F)c21 (relative stereo) [Example 59]
From the items above, decide which of a and b has the lower Ki reading. # answer = label of selected item a

1 = O=S(=O)(c1cccc(C(F)(F)F)c1)N1Cc2ccccc2[C@@H]2CN(Cc3ccccc3)C[C@H]2C1 (relative stereo) [Example 16]
2 = O=C1NC[C@@H]2CN(Cc3ccccc3)C[C@H]2c2c(F)cccc21 (relative stereo) [Example 65]
3 = O=C1NC[C@@H]2CN(Cc3ccccc3)C[C@H]2c2c(Cl)cccc21 (relative stereo) [Example 48]
Kindly order the items shown according to Ki, from the highest value down. Dear reader, please state the labels in the requested order. 1, 2, 3
(1: 560 nM, 2: 53 nM, 3: 22 nM)

---

Target: human serotonin 5-HT2c receptor (Homo sapiens)
Sequence (P28335 33-458): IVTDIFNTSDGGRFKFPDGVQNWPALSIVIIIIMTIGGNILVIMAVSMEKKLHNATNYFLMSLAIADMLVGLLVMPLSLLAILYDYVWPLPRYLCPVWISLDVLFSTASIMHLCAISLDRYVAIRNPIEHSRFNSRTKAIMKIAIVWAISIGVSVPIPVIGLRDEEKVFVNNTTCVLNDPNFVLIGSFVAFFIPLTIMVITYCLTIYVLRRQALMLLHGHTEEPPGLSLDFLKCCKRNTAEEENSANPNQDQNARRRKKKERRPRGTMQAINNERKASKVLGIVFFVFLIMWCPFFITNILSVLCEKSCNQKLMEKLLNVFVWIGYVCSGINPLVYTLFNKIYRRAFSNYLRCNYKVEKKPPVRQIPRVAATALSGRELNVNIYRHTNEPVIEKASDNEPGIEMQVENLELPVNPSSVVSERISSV
Experiment: Human 5-HT2C receptor radioligand binding assay (agonist site, [125I]DOI)
Details: 5-HT2c agonist site; transfected CHO cell membranes; 0.2 nM [125I](±)DOI
Method: (i) Human 5-HT2C Receptor Radioligand Binding Assay Affinity of compounds for the agonist site of the […], receptor in transfected CHO cells was determined in a radioligand binding assay essentially as described by Bryant, H. U., et al., Life Sciences (1996) 59(15), 1259-1268.
Endpoint name: Ki (nM)

Example entries and their recorded answers appear below.
INSERT INTO assay_data (compound, endpoint_name, measurement_units, measured_result) VALUES
  ('O=C1NC[C@@H]2CN(Cc3cc(Cl)cc(Cl)c3)C[C@H]2c2ccccc21 (relative stereo) [Example 30]', 'Ki', 'nM', 3.4),
  ('O=C1NC[C@@H]2CNC[C@H]2c2ccc(F)cc21 (relative stereo) [Example 57]', 'Ki', 'nM', 26),
  ('O=S(=O)(c1cccc(F)c1)N1Cc2ccccc2[C@@H]2CNC[C@H]2C1 (relative stereo) [Example 54]', 'Ki', 'nM', 9.1),
  ('O=C1NC[C@@H]2CNC[C@H]2c2ccccc21 (relative stereo) [Example 2]', 'Ki', 'nM', 22),
  ('O=C1NC[C@@H]2CNC[C@H]2c2c(F)cccc21 (relative stereo) [Example 67]', 'Ki', 'nM', 43),
  ('c1ccc2c(c1)OCC[C@H]1CNC[C@@H]21 (relative stereo) [Example 96]', 'Ki', 'nM', 380);

1 = O=S(=O)(c1cccc(F)c1)N1Cc2ccccc2[C@@H]2CN(Cc3ccccc3)C[C@H]2C1 (relative stereo) [Example 8]
2 = O=S(=O)(c1cccc(Br)c1)N1Cc2ccccc2[C@@H]2CN(Cc3ccccc3)C[C@H]2C1 (relative stereo) [Example 12]
When their Ki values are compared, which is larger, 1 or 2 ? // respond with label for picked entry 2

---

Molecular target: 5HT2B receptors (Homo sapiens)
Construct: expressed in transfected cells; host or cells: CHO-K1 cells
Assay: Human 5-HT2B functional high throughput screening assay in CHO-K1 cells (calcium flux)
Format: cell-based
Settings: 5-HT2B agonist activity; CHO-K1 cells; calcium flux; read-out: EC50
pEC50: −log10 of the molar value.
Endpoint name: pEC50

// worked examples, pEC50 included
INSERT INTO measurements (compound, measured_result) VALUES
  ('O=C1NC[C@@H]2CNC[C@H]2c2cc3ccccc3cc21 (relative stereo)', 7.22),
  ('O=S(=O)(c1cccs1)N1Cc2cccnc2[C@@H]2CNC[C@H]2C1 (relative stereo)', '< 5.00'),
  ('O=C1C[C@@H]2CN(Cc3ccccc3)C[C@H]2c2ccccc2N1 (relative stereo)', '< 5.00');

Shifting focus to the compound that follows.
Indicate its recorded pEC50; the compound in question is CN1C[C@H]2CNC(=O)c3cc(-c4cccc(F)c4)ccc3[C@@H]2C1 (relative stereo) < 5.00

---

Target: 5HT2C receptors (Homo sapiens, UniProt P28335)
Assay: Human 5-HT2C functional high throughput screening assay in CHO-K1 cells (calcium flux)
Assay type: cell-based
Set-up: expressed in transfected cells; host or cells: CHO-K1 cells
Conditions: 5-HT2C agonist activity; CHO-K1 cells; calcium flux; read-out: EC50
pEC50: −log10 of the molar value.
Endpoint name: pEC50

Previously resolved entries follow.
INSERT INTO results (compound, endpoint_name, measured_result) VALUES
  ('CN1C[C@@H]2CNC(=O)c3cc(OCc4c(F)ccc(F)c4F)ccc3[C@H]2C1 [Example 213]', 'pEC50', 9.00),
  ('CN1C[C@H]2CNC(=O)c3cc(C(=O)Nc4ccccc4)ccc3[C@@H]2C1 (relative stereo) [Example 128]', 'pEC50', 5.70),
  ('CN1C[C@H]2CNC(=O)c3cc(OCc4cccc(F)c4)ccc3[C@@H]2C1 (relative stereo) [Example 217]', 'pEC50', 8.70),
  ('COC(=O)c1ccc2c(c1)C(=O)NC[C@@H]1CN(C)C[C@@H]21 (relative stereo) [Example 88]', 'pEC50', 6.30),
  ('CN1C[C@H]2CNC(=O)c3cc(-c4cccc(C=O)c4)ccc3[C@@H]2C1 (relative stereo) [Example 198]', 'pEC50', 8.05);

I = CN1C[C@H]2CNC(=O)c3cc(Oc4ccc(F)cc4)ccc3[C@@H]2C1 (relative stereo) [Example 243]
II = C[C@@H](O)c1cc(-c2ccc3c(c2)C(=O)NC[C@H]2CN(C)C[C@H]32)ccc1F (single isomer, unassigned) [Example 353]
API: POST /compare with I and II ; response names the item with higher pEC50. Give the chosen item's label as your response. II
